From: patent US20190127381A1

This listing pairs compounds with measured inhibition at 1 µM.
system_name: purified recombinant human PI3K enzyme γ (Homo sapiens, UniProt P48736)
Construct: purchased Invitrogen, USA
Sequence (P48736 whole entry): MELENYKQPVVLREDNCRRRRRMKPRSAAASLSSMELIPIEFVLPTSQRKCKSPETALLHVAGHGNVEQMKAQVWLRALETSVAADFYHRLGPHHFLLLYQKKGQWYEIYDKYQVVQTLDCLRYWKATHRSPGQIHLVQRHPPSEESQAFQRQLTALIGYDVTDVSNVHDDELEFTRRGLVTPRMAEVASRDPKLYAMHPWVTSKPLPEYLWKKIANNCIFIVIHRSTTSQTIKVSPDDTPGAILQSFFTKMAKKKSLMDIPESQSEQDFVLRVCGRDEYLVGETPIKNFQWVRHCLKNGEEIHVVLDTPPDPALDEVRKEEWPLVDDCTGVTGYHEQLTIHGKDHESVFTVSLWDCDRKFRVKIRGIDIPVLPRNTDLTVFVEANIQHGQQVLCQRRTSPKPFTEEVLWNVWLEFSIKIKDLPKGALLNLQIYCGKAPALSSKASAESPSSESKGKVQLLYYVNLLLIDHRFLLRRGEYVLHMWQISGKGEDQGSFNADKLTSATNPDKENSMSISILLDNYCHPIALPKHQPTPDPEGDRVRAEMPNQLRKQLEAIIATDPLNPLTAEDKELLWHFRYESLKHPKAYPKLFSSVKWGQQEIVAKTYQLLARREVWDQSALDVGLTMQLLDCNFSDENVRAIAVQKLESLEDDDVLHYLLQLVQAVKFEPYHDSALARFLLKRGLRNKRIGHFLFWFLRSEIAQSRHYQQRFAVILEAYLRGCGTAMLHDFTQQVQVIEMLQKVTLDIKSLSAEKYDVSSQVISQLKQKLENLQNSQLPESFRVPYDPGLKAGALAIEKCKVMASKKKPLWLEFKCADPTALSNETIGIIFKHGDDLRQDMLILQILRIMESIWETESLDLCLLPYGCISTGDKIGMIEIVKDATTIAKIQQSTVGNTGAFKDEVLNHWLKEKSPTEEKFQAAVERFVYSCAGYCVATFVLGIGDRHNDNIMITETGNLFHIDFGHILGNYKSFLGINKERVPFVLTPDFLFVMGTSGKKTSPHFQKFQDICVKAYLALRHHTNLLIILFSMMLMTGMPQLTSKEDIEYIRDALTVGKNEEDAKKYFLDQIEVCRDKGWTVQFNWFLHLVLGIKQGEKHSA
test_name: Inhibition of PI3-Kinase enzymatic activity (HTRF enzyme assay), γ
Format: biochemical
stated_conditions: 1 μM compound; PI3K γ 100 ng/well; PIP2 10 μM; ATP 50 μM; read-out: Percentage inhibition of PI3K activity, γ

Solved cases below.
Cc1cccc2nc(Cn3nc(-c4ccc(O)c5c4CC(C)(C)O5)c4c(N)ncnc43)n(-n3cccc3)c(=O)c12 :: 80 to 100%
COc1ccc(-c2nn(Cc3nc4cccc(C)c4c(=O)n3-n3c(C)ccc3C)c3ncnc(N)c23)c2c1OC(C)(C)C2 :: 60 to 80%
Cc1cccc(C2(n3c(Cn4nc(-c5ccc(O)c6c5CC(C)(C)O6)c5c(N)ncnc54)nc4cccc(C#CCO)c4c3=O)CC2)c1 :: 60 to 80%
CC1(C)Cc2c(-c3nn(Cc4nc5cccc(Br)c5c(=O)n4-n4cccc4)c4ncnc(N)c34)ccc(O)c2O1 :: 80 to 100%
Cc1ccc(-c2cccc3nc(Cn4nc(-c5ccc(O)c6c5CC(C)(C)O6)c5c(N)ncnc54)n(C4(c5ccccc5)CC4)c(=O)c23)o1 :: 60 to 80%

Now, please, on to the next compound.
get_value(item= `CC1(C)Cc2c(-c3nn(Cc4nc5cccc(-c6cccnc6)c5c(=O)n4-n4cccc4)c4ncnc(N)c34)ccc(O)c2O1` , readout=inhibition at 1 µM) returns 60 to 80%

---

system_name: purified recombinant human PI3K enzyme δ (Homo sapiens)
Construct: purchased Invitrogen, USA
Sequence (O00329 whole entry): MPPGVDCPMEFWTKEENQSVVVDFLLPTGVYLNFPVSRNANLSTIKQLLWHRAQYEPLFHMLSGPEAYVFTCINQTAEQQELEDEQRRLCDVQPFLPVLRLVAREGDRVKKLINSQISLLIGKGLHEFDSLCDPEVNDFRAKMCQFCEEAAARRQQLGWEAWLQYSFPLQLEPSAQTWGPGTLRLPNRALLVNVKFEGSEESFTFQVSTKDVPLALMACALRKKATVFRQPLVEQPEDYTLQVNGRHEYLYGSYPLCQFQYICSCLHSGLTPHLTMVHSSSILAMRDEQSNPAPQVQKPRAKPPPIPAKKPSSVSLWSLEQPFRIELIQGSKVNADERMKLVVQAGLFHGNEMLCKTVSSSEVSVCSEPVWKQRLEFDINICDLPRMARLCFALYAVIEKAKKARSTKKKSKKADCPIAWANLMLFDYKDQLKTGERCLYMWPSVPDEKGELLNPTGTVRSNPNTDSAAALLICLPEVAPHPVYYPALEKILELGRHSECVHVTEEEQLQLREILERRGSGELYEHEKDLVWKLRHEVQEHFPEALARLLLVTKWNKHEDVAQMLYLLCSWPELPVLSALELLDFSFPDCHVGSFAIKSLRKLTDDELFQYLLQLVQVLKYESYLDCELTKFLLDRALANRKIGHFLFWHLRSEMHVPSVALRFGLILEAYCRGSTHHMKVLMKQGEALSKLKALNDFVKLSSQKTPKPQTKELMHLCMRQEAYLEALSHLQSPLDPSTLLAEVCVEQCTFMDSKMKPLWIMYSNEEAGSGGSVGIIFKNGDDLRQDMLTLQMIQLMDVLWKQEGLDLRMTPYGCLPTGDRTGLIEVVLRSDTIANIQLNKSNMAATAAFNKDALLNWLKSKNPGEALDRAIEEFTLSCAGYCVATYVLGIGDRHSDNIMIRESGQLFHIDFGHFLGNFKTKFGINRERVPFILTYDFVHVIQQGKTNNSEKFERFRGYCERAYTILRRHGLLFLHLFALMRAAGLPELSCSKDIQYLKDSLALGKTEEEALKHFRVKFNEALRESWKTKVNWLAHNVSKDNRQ
Sequence (P27986 whole entry partner): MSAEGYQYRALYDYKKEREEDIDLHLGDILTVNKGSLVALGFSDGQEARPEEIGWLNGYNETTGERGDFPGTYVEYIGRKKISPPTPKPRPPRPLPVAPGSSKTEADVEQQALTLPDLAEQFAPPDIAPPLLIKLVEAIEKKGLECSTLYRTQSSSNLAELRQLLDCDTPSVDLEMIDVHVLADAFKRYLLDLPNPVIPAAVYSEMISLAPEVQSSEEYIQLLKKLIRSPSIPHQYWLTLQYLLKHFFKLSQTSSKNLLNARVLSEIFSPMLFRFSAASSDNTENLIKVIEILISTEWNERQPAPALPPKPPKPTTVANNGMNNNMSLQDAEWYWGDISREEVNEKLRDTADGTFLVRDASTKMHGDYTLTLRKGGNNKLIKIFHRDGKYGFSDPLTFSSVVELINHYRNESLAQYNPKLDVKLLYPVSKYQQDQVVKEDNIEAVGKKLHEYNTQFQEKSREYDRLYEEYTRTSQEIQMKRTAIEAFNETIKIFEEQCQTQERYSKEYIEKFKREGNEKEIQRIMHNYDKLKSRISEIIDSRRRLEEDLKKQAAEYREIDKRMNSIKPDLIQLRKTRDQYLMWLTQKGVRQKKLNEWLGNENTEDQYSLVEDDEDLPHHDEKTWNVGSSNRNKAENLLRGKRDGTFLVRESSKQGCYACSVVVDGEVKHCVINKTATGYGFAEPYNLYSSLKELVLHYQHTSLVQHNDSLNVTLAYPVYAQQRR
test_name: Inhibition of PI3-Kinase enzymatic activity (HTRF enzyme assay), δ
Type: biochemical
stated_conditions: 1 μM compound; PI3K δ 50 ng/well; PIP2 10 μM; ATP 200 μM; read-out: Percentage inhibition of PI3K activity, δ
We begin with a simple list: items and their reported inhibition at 1 µM.

Cc1ccc(-c2cccc3nc(Cn4nc(-c5ccc(O)c6c5CC(C)(C)O6)c5c(N)ncnc54)n(C4(c5ccccc5)CC4)c(=O)c23)o1 :: 60 to 80%
CC1(C)Cc2c(-c3nn(Cc4nc5cccc(C#CCO)c5c(=O)n4C4(c5ccccc5)CC4)c4ncnc(N)c34)ccc(O)c2O1 :: 80 to 100%

Noted for `CC1(C)Cc2c(-c3nn(Cc4nc5cccc(-c6ccoc6)c5c(=O)n4-n4cccc4)c4ncnc(N)c34)ccc(O)c2O1` : its inhibition at 1 µM reads 80 to 100%

---

system_name: purified recombinant human PI3K enzyme γ (Homo sapiens, UniProt P48736)
Construct: purchased Invitrogen, USA
test_name: Inhibition of PI3-Kinase enzymatic activity (HTRF enzyme assay), γ
Format: biochemical
stated_conditions: 1 μM compound; PI3K γ 100 ng/well; PIP2 10 μM; ATP 50 μM; read-out: Percentage inhibition of PI3K activity, γ
Below: a set of entries, each annotated with reported inhibition at 1 µM.

Below: 5 compounds and their reported inhibition at 1 µM.
Cc1ccccc1C1(n2c(Cn3nc(-c4ccc(O)c5c4CC(C)(C)O5)c4c(N)ncnc43)nc3cccc(-c4ccnn4C)c3c2=O)CC1 [compound 59] :: 60 to 80%
Cn1nccc1-c1cccc2nc(Cn3nc(-c4ccc(O)c5c4CC(C)(C)O5)c4c(N)ncnc43)n(-n3cccc3)c(=O)c12 [compound 22] :: 60 to 80%
Nc1ncnc2c1c(-c1ccc(O)c3c1CCC3)nn2Cc1nc2cccc(Cl)c2c(=O)n1-n1cccc1 [compound 1] :: 80 to 100%
Cn1cccc1-c1cccc2nc(Cn3nc(-c4ccc(O)c5c4CC(C)(C)O5)c4c(N)ncnc43)n(C3(c4ccsc4)CC3)c(=O)c12 [compound 75] :: 80 to 100%
CC(=O)NCC#Cc1cccc2nc(Cn3nc(-c4ccc(O)c5c4CC(C)(C)O5)c4c(N)ncnc43)n(-n3cccc3)c(=O)c12 [compound 28] :: 80 to 100%

Entry CC1(C)Cc2c(-c3nn(Cc4nc5cccc(Cl)c5c(=O)n4-n4cccn4)c4ncnc(N)c34)ccc(O)c2O1 [compound 6] : inhibition at 1 µM on purified recombinant human PI3K enzyme γ (Homo sapiens, UniProt P48736) = 60 to 80%

Kindly note: purified recombinant human PI3K enzyme γ (Homo sapiens, UniProt P48736), Cn1cc(-c2cccc3nc(Cn4nc(-c5ccc(O)c6c5CC(C)(C)O6)c5c(N)ncnc54)n(-n4cccc4)c(=O)c23)cn1 [Compound No. 44] , inhibition at 1 µM value reported: 80 to 100%

purified recombinant human PI3K enzyme γ (Homo sapiens, UniProt P48736) data for CCn1cc(-c2cccc3nc([C@H](C)n4nc(-c5ccc(O)c6c5CC(C)(C)O6)c5c(N)ncnc54)n(-n4cccc4)c(=O)c23)cn1 [compound 99] ; its inhibition at 1 µM: 40 to 60%

Item: Cc1ccc(C)n1-n1c(Cn2nc(-c3ccc(O)c4c3CC(C)(C)O4)c3c(N)ncnc32)nc2cccc(C#CCO)c2c1=O [compound 42] | System: purified recombinant human PI3K enzyme γ (Homo sapiens, UniProt P48736) | inhibition at 1 µM: 80 to 100%

inhibition at 1 µM for purified recombinant human PI3K enzyme γ (Homo sapiens, UniProt P48736) with input CC1(C)Cc2c(-c3nn(Cc4nc5cccc(-c6ccoc6)c5c(=O)n4-n4cccc4)c4ncnc(N)c34)ccc(O)c2O1 [compound 23] equals 80 to 100%

Reported purified recombinant human PI3K enzyme γ (Homo sapiens, UniProt P48736) inhibition at 1 µM for item CC1(C)Cc2c(-c3nn(Cc4nc5cccc(F)c5c(=O)n4C4(c5ccccc5)CC4)c4ncnc(N)c34)ccc(O)c2O1 [compound 26] was 40 to 60%

Simply: Cc1ccc(C)n1-n1c(Cn2nc(-c3ccc(O)c4c3CC(C)(C)O4)c3c(N)ncnc32)nc2cccc(C#CCN3CCOCC3)c2c1=O [compound 80] , purified recombinant human PI3K enzyme γ (Homo sapiens, UniProt P48736), inhibition at 1 µM = 60 to 80%

Hey, purified recombinant human PI3K enzyme γ (Homo sapiens, UniProt P48736) data for CC1(C)Cc2c(-c3nn(Cc4nc5cccc(-c6ccncc6)c5c(=O)n4-n4cccc4)c4ncnc(N)c34)ccc(O)c2O1 [compound 18] : inhibition at 1 µM came out at 60 to 80%
